# Species on record: Rattus norvegicus
# MEASUREMENT_NOTES: Tested for antagonism of clonidine in the field-stimulated rat vas deferens.
# Assay type: functional
# MEASUREMENT_SETUP: read-out: pA2 (converted)
Listed here: items and their measured Kb.
Please state the number and follow it with the unit.

Worked cases, answers included:
MOLECULE | Kb
CN([C@@H]1CCN2CCc3c(oc4ccccc34)[C@@H]2C1)S(=O)(=O)CCO | 0.000794 µM
COC(=O)[C@@H]1[C@H]2C[C@H]3c4[nH]c5ccccc5c4CCN3C[C@@H]2CC[C@@H]1O [YOHIMBINE] | 0.0224 µM

// CN([C@H]1CCN2CCc3c(oc4ccccc34)[C@H]2C1)S(=O)(=O)CCO : Kb value = 0.0398 µM

For CN(C1CCN2CCc3c(oc4ccccc34)C2C1)S(=O)(=O)CCO (centres undefined) the molecule record lists Kb as 0.0017 µM
